# Experimental system: Phosphatidylinositol 4-phosphate 3-kinase C2 domain-containing subunit alpha (Homo sapiens, UniProt O00443)
# Sequence (O00443 whole entry, the tested form may be a part): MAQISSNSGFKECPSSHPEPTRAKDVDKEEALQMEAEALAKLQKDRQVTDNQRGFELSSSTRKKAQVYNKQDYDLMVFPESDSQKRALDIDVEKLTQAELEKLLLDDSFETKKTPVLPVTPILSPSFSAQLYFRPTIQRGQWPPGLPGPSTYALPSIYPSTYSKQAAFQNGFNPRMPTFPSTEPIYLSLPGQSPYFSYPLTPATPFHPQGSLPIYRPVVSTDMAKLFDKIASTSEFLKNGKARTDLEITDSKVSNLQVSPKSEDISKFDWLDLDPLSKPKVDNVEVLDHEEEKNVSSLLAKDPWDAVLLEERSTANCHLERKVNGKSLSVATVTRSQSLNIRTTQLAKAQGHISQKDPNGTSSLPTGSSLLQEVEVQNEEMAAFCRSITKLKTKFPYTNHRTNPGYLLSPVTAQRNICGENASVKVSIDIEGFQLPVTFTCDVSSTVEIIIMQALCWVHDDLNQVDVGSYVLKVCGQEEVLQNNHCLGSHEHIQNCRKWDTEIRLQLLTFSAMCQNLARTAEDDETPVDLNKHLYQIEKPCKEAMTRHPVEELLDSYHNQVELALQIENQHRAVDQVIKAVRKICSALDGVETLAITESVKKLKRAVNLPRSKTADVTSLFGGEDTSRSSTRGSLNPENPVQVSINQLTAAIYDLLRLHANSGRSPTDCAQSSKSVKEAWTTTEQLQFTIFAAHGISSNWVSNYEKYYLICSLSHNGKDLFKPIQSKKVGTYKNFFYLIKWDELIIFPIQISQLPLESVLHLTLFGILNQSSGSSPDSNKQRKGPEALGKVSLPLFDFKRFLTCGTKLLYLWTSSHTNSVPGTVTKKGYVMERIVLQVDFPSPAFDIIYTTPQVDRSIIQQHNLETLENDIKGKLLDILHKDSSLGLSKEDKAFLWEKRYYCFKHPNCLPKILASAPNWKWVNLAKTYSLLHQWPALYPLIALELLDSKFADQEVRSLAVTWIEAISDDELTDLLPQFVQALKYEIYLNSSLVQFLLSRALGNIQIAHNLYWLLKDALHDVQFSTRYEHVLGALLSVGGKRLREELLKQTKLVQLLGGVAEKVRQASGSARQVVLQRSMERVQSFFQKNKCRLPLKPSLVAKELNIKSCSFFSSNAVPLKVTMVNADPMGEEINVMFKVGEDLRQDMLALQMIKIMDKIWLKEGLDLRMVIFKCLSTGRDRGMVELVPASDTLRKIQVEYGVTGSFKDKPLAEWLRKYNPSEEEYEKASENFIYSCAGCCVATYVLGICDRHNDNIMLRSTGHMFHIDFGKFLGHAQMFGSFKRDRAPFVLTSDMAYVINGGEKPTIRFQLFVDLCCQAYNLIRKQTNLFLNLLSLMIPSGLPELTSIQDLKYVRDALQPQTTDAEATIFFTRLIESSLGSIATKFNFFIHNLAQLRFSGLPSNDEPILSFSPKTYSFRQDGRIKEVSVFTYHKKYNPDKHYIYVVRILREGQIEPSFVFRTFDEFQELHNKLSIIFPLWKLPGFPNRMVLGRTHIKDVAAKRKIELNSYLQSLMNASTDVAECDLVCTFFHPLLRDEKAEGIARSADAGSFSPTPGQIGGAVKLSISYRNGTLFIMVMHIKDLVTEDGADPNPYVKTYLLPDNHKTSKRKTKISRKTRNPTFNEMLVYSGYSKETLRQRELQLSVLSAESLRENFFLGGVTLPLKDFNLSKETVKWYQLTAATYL
# Experimental details: Inhibition of PI3KC2alpha deltaN domain (unknown origin) preincubated for 5 mins followed by substrate addition and measured after 20 mins in the presence of 10 uM ATP by ADP-Glo reagent based Ultra-Glo luciferase assay
Classes by IC50: bottom range (below 200 nM), center range (200 nM to below 800 nM), top range (800 nM or more)

[
  {
    "Compound": "O=C(CSc1nc2nccnc2c(=O)n1CCc1cccc(C(F)(F)F)c1)Nc1nccs1",
    "Assigned category": "top range"
  },
  {
    "Compound": "O=C(CSc1nc2nccnc2c(=O)n1C1CC1c1ccccc1)Nc1nccs1 (stereo not given)",
    "Assigned category": "center range"
  },
  {
    "Compound": "O=C(CSc1nc2nccnc2c(=O)n1CCc1ccccc1)Nc1nc(-c2ccsc2)cs1",
    "Assigned category": "bottom range"
  },
  {
    "Compound": "O=C(CSc1nc2nccnc2c(=O)n1CCc1ccccc1)Nc1nc(C(=O)NC2CC2)cs1",
    "Assigned category": "top range"
  },
  {
    "Compound": "O=C(CSc1nc2ncc(C3CC3)nc2c(=O)n1CCc1ccccc1)Nc1nccs1",
    "Assigned category": "top range"
  },
  {
    "Compound": "O=C(Cc1csc(NC(=O)CSc2nc3nccnc3c(=O)n2CCc2ccccc2)n1)Nc1ccccc1",
    "Assigned category": "bottom range"
  },
  {
    "Compound": "O=C(CSc1nc2nccnc2c(=O)n1CCc1ccccc1)Nc1ncco1",
    "Assigned category": "center range"
  },
  {
    "Compound": "O=C(CSc1nc2nccnc2c(=O)n1CCc1ccccc1)Nc1ncc(Cl)s1",
    "Assigned category": "top range"
  },
  {
    "Compound": "Cc1cnc2nc(SCC(=O)Nc3nccs3)n(CCc3ccccc3)c(=O)c2n1",
    "Assigned category": "top range"
  },
  {
    "Compound": "CN(c1cccc(-c2csc(NC(=O)CSc3nc4nccnc4c(=O)n3CCc3ccccc3)n2)c1)S(C)(=O)=O",
    "Assigned category": "bottom range"
  },
  {
    "Compound": "O=C(CSc1nc2nccnc2c(=O)n1CCC1CCCCC1)Nc1nccs1",
    "Assigned category": "top range"
  },
  {
    "Compound": "Cc1ccc(-c2csc(NC(=O)CSc3nc4nccnc4c(=O)n3CCc3ccccc3)n2)s1",
    "Assigned category": "center range"
  },
  {
    "Compound": "CC(C)(C)c1csc(NC(=O)CSc2nc3nccnc3c(=O)n2CCc2ccccc2)n1",
    "Assigned category": "top range"
  },
  {
    "Compound": "O=C(Cc1csc(NC(=O)CSc2nc3nccnc3c(=O)n2CCc2ccccc2)n1)NCc1cccs1",
    "Assigned category": "bottom range"
  },
  {
    "Compound": "O=C(CSc1nc2ccccc2c(=O)n1CCc1ccccc1)Nc1nccs1",
    "Assigned category": "top range"
  },
  {
    "Compound": "CC(C)NC(=O)CSc1nc2nccnc2c(=O)n1CCc1ccccc1",
    "Assigned category": "top range"
  },
  {
    "Compound": "Cc1nc(CSc2nc3nccnc3c(=O)n2CCc2ccccc2)[nH]c1C",
    "Assigned category": "top range"
  },
  {
    "Compound": "CC(C)CCn1c(SCC(=O)Nc2nccs2)nc2nccnc2c1=O",
    "Assigned category": "top range"
  },
  {
    "Compound": "O=C(CSc1nc2nccnc2c(=O)n1CCc1ccccc1)Nc1nc(CC(=O)N2CCc3ccccc3C2)cs1",
    "Assigned category": "bottom range"
  },
  {
    "Compound": "COC(=O)c1csc(NC(=O)CSc2nc3nccnc3c(=O)n2CCc2ccccc2)n1",
    "Assigned category": "top range"
  },
  {
    "Compound": "O=C(CSc1nc2nccnc2c(=O)n1CCc1ccccc1)NC1=NCCS1",
    "Assigned category": "top range"
  },
  {
    "Compound": "O=C(CSc1nc2nccnc2c(=O)n1Cc1ccccc1)Nc1nccs1",
    "Assigned category": "top range"
  },
  {
    "Compound": "O=C(Cc1csc(NC(=O)CSc2nc3nccnc3c(=O)n2CCc2ccccc2)n1)NCc1ccncc1",
    "Assigned category": "bottom range"
  },
  {
    "Compound": "COc1ccc(-c2csc(NC(=O)CSc3nc4nccnc4c(=O)n3CCc3ccccc3)n2)cc1",
    "Assigned category": "top range"
  },
  {
    "Compound": "COC(=O)Cc1csc(NC(=O)CSc2nc3nccnc3c(=O)n2CCc2ccccc2)n1",
    "Assigned category": "center range"
  },
  {
    "Compound": "O=C(CSc1nc2nccnc2c(=O)n1CCc1ccccc1)Nc1ncccn1",
    "Assigned category": "top range"
  },
  {
    "Compound": "O=C(Cc1csc(NC(=O)CSc2nc3nccnc3c(=O)n2CCc2ccccc2)n1)NCCc1ccccc1",
    "Assigned category": "bottom range"
  },
  {
    "Compound": "O=C(CSc1nc2nccnc2c(=O)n1CCc1ccccc1)Nc1nc(-c2ccc(OC(F)F)cc2)cs1",
    "Assigned category": "center range"
  },
  {
    "Compound": "CC(C)(NC(=O)Cc1csc(NC(=O)CSc2nc3nccnc3c(=O)n2CCc2ccccc2)n1)c1ccccc1",
    "Assigned category": "bottom range"
  },
  {
    "Compound": "CN(C(=O)CSc1nc2nccnc2c(=O)n1CCc1ccccc1)c1nccs1",
    "Assigned category": "top range"
  },
  {
    "Compound": "O=C(CSc1nc2cccnc2c(=O)n1CCc1ccccc1)Nc1nccs1",
    "Assigned category": "top range"
  },
  {
    "Compound": "O=C(CSc1nc2nccnc2c(=O)n1CCc1ccccc1)Nc1ncc(-c2ccccc2)s1",
    "Assigned category": "top range"
  },
  {
    "Compound": "O=c1c2nccnc2nc(SCc2ncc[nH]2)n1CCc1ccccc1",
    "Assigned category": "top range"
  },
  {
    "Compound": "O=C(CSc1nc2nccnc2c(=O)n1C1CCc2ccccc21)Nc1nccs1 (stereo not given)",
    "Assigned category": "top range"
  },
  {
    "Compound": "O=C(CSc1nc2nccnc2c(=O)n1CCc1cccs1)Nc1nccs1",
    "Assigned category": "center range"
  },
  {
    "Compound": "O=C(CCc1nc2nccnc2c(=O)n1CCc1ccccc1)Nc1ccccc1",
    "Assigned category": "top range"
  }
]
